assay: Aqueous solubility of the compound; type: physicochemical
measurement.label: solubility

Can you look up the measured solubility of "O=P(O)(O)Cc1ccc(-c2nn(Cc3ccccc3)c3ccccc23)o1" for me?
> 800 µM
